The measurements presented in this section are drawn from PubChem BioAssay AID1996.

conditions: buffer; pH 7.4; 200.0 µM
// F strictly below 20 µg/mL in solubility kinetic; T otherwise

>  <MOLECULE>
CC(NC(=O)c1cc2cc([N+](=O)[O-])ccc2oc1=O)C1CCCO1 (configuration not stated)

>  <ANSWER_LABEL>
T

$$$$
>  <MOLECULE>
CC1CN(CCn2cnc3c(N)ncnc32)CC(C)O1 (configuration not stated)

>  <ANSWER_LABEL>
T

$$$$
>  <MOLECULE>
CC1CN(C/C(=N\O)C23CC4CC(CC(C4)C2)C3)CC(C)O1 (configuration not stated)

>  <ANSWER_LABEL>
T

$$$$
>  <MOLECULE>
C#CCOc1ccc(/C=C2/C(=O)N(c3cccc(C(=O)O)c3)N=C2C)cc1OC

>  <ANSWER_LABEL>
T

$$$$
>  <MOLECULE>
Cn1c(=O)c2c(=O)cc(N)[nH]c2n(C)c1=O

>  <ANSWER_LABEL>
F

$$$$
>  <MOLECULE>
Cc1ccc(C(=O)NCCNC(=O)c2ccccc2)cc1

>  <ANSWER_LABEL>
T

$$$$
>  <MOLECULE>
Cc1cc(O)c(C(=O)Nc2cccc(Cl)c2)c(=O)n1C

>  <ANSWER_LABEL>
F

$$$$
>  <MOLECULE>
Cn1cc(C=C2C(=O)NC(=O)NC2=O)c2ccccc21

>  <ANSWER_LABEL>
F

$$$$

Evaluate O=C1/C(=C\c2cccc(O)c2)SC(=S)N1Cc1ccccc1 : solubility kinetic at minimum 20 µg/mL?
F

Evaluate CC1CCCN(C(=O)COc2ccc3c(c2)OCO3)C1 (configuration not stated) : solubility kinetic at minimum 20 µg/mL?
T

Evaluate O=C(NCCNC(=O)c1ccccc1[N+](=O)[O-])c1ccccc1[N+](=O)[O-] : solubility kinetic at minimum 20 µg/mL?
F

###

settings: buffer; pH 7.4; 200.0 µM
// FALSE strictly below 30 µg/mL in solubility kinetic; TRUE otherwise

Use the examples below as a reference point.
>  <COMPOUND>
Br.Clc1ccccc1CNCC1CCCO1 (stereo not given)

>  <ANSWER_LABEL>
TRUE

$$$$
>  <COMPOUND>
CC(=O)c1sc(C(C)(C)C)cc1NC(=O)c1ccccc1C(=O)O

>  <ANSWER_LABEL>
TRUE

$$$$
>  <COMPOUND>
O=C(CN1C(=O)S/C(=C\c2ccccn2)C1=O)Nc1ccc(F)cc1

>  <ANSWER_LABEL>
FALSE

$$$$
>  <COMPOUND>
O=C(NCc1ccccc1)c1cnc(Cl)c(Cl)c1

>  <ANSWER_LABEL>
TRUE

$$$$
>  <COMPOUND>
CC1CN(Cc2ccccc2)C(C)CC1O (stereo not given)

>  <ANSWER_LABEL>
TRUE

$$$$
>  <COMPOUND>
COc1ccccc1C1(CCNC(C)c2cccs2)CCOC(C(C)C)C1 (stereo not given)

>  <ANSWER_LABEL>
TRUE

$$$$
>  <COMPOUND>
COc1ccc(-n2cnc3sccc3c2=O)cc1

>  <ANSWER_LABEL>
TRUE

$$$$
>  <COMPOUND>
CC(=O)c1c(C)n(-c2ccccc2Br)c2ccc(O)cc12

>  <ANSWER_LABEL>
FALSE

$$$$

Evaluate COc1cc(C2NC(=S)NC(c3ccccc3)=C2C(C)=O)ccc1O (stereo not given) : solubility kinetic at minimum 30 µg/mL?
TRUE

Evaluate CCOCCCNC(=O)c1c[nH]c2ccc(OCC)cc2c1=O : solubility kinetic at minimum 30 µg/mL?
TRUE

Evaluate COc1cccc(C(=O)NCc2ccc3c(c2)OCO3)c1OC : solubility kinetic at minimum 30 µg/mL?
TRUE

Evaluate O=c1[nH]cnc2c1ncn2[C@@H]1O[C@H](CO)[C@@H](O)[C@H]1O : solubility kinetic at minimum 30 µg/mL?
TRUE

Evaluate Cc1nnc(NC(=O)C2CC(=O)N(Cc3ccccc3)C2)s1 (stereo not given) : solubility kinetic at minimum 30 µg/mL?
TRUE

Evaluate O=C(NCCN1CCCCC1)Nc1ccc(Br)cc1 : solubility kinetic at minimum 30 µg/mL?
TRUE
